System: H1650
procedure summary: In vitro anti-proliferative activity (MTT assay)
Format: cell-based
condition parameters: Homo sapiens, NCI-H1650, H1650 (lung), 24 h treatment + 48 h culture, average ± SD
readout kind: IC50 (µM)
I only need the number, in µM, no unit after it.

Q: I would be grateful if you could share the reported IC50 for COc1cccc2c1C(=O)c1c(O)c3c(c(O)c1C2=O)C[C@@](O)(C(C)=O)C[C@@H]3O[C@H]1C[C@H](N)[C@H](O)[C@H](C)O1 [Dau, daunorubicin] .
A: 0.0503

###

Tested on: HepG2
procedure summary: In vitro anti-proliferative activity (MTT assay)
Assay type: cell-based
condition parameters: Homo sapiens, HepG2 (liver), 24 h treatment + 48 h culture, average ± SD
readout kind: IC50 (nM)
I only need the number, in nM, no unit after it.

Q: I would be grateful if you could share the reported IC50 for COc1cccc2c1C(=O)c1c(O)c3c(c(O)c1C2=O)C[C@@](O)(C(C)=O)C[C@@H]3O[C@H]1C[C@H](N)[C@H](O)[C@H](C)O1 .
A: 22.9
